test system: NCI-H322M lung; assay: NCI-60 one-dose screen, 48 h (100 = growth as untreated, 0 = no growth, -100 = all killed); details: 10 µM
About 83,000 compounds went through this panel and 20% of them were active in at least one assay; those are over-represented in the sample as a whole.
Hi! Could you tag entries with growth below 70% as MET, and those at or above as NOT MET? Much appreciated.

{"columns": ["molecule", "category-label"],
 "data": [
  ["COc1ccc(OC)c(/C=C/C(=O)c2nc3ccccc3n2Cc2ccc(F)cc2)c1", "MET"],
  ["O=C(/C=C/c1cccc(Br)c1)c1nc2ccccc2n1Cc1ccc(Br)cc1", "MET"],
  ["O=C(/C=C/c1ccco1)c1nc2ccccc2n1Cc1ccc(F)cc1", "NOT MET"],
  ["COC(=O)C[C@](O)(CCC(C)C)C(=O)O[C@H]1C(OC)=C[C@@]23CCCN2CCc2cc4c(cc2[C@@H]13)OCO4", "MET"],
  ["C[C@H]1[C@H](OC(=O)CCC(=O)N(CCCc2cn(-c3ccc(C#N)cc3)nn2)CCNc2ccnc3cc(Cl)ccc23)O[C@@H]2OC3(C)CC[C@H]4[C@H](C)CC[C@@H]1[C@@]24OO3", "NOT MET"],
  ["CC12OOC(C)(OO1)C2CCC(=O)OCCNc1ccnc2cc(Cl)ccc12 (stereo not given)", "NOT MET"],
  ["O=C(/C=C/c1ccc(F)cc1)c1nc2ccccc2n1Cc1ccc(Br)cc1", "MET"],
  ["CC1=C(C=O)C2=C(C)C3(CC3)[C@@](C)(O)C(=O)C2=C1", "MET"],
  ["CC12OOC(C)(OO1)C2CCC(=O)NCCNc1ccnc2cc(Cl)ccc12 (stereo not given)", "NOT MET"],
  ["CC[C@]12C=CCN3CC[C@@]4(c5ccc(OC)cc5N(C)[C@H]4[C@@](O)(C(=O)OC)[C@@H]1OC(=O)CCC[P+](C1CCCCC1)(C1CCCCC1)C1CCCCC1)[C@@H]32", "MET"],
  ["C#CCCCN(CCNc1ccnc2cc(Cl)ccc12)C(=O)CCC(=O)O[C@@H]1O[C@@H]2OC3(C)CC[C@H]4[C@H](C)CC[C@@H]([C@H]1C)[C@@]24OO3", "MET"],
  ["COc1ccc2cc([C@H](C)C(=O)[Se]CCC#N)ccc2c1", "MET"],
  ["COc1cc(OC)c(/C=C/C(=O)c2nc3ccccc3n2Cc2ccc(F)cc2)c(OC)c1", "NOT MET"],
  ["COC(=O)C[C@](O)(CCC(C)C)C(=O)O[C@@H]1C(OC)=C[C@]23CCCN2CCc2cc4c(cc2[C@H]13)OCO4", "MET"],
  ["Cc1c2oc3c(C)ccc(C(=O)N[C@@H]4C(=O)N[C@H](C(C)C)C(=O)N5CCC[C@H]5C(=O)N(C)CC(=O)N(C)[C@@H](C(C)C)C(=O)OC4C)c3nc-2c(C(=O)N[C@@H]2C(=O)N[C@H](C(C)C)C(=O)N3CC(=O)C[C@H]3C(=O)N(C)CC(=O)N(C)[C@@H](C(C)C)C(=O)OC2C)c(N)c1=O (stereo not given in full)", "MET"]
]}
